Consider the following molecules; for each one, report its composite z-score.
assay: small-molecule microarray binders of probe aDKK1, primary screen, biochemical, biotinylated probe, 635/667 nm fluorescence (AID 1099); details: higher = more signal;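 also: score merges 667nm spot fluorescence with signal to noise across triplicate slides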

INSERT INTO measurements (molecule, experimental_readout, observed_result) VALUES
  ('COC(OC)[C@@H](C)[C@H](OC)[C@@H](C)[C@H](OC)c1ccccc1', 'composite z-score', -0.185),
  ('C[C@@H](c1ccccc1)N1C(=O)[C@H]2[C@H]3[C@H](O)[C@H](O)CC(=NOCc4ccccc4)[C@@H]3CC[C@H]2C1=O', 'composite z-score', 1.19),
  ('CON=C[C@@H](OC)[C@H](C)C=CCC(=O)OC', 'composite z-score', -0.171),
  ('CC(=O)OC[C@H]1O[C@H](CC=NOC[C@@H](O)COCc2ccco2)C=C[C@@H]1OC(C)=O', 'composite z-score', -0.233),
  ('C[C@@H]1CC[C@H]2C(=O)N3[C@@H](CC[C@@H](C)[C@@H]3c3ccc(Br)cc3)C(=O)N2[C@H]1c1ccc(Br)cc1', 'composite z-score', -0.339);

Hey, can you go through the list below and give me composite z-score for every item?
1. C[C@@H](c1ccccc1)N1C(=O)[C@H]2[C@H]3[C@H](O)[C@H](O)CC(=NOC[C@@H](O)COCc4ccco4)[C@H]3CC[C@H]2C1=O
2. COC(=O)[C@H](Cc1ccccc1)NC(=O)[C@@H](C)CO
3. CC(C)=NO[C@@H](C)c1cn([C@H](CO)Cc2ccccc2)nn1
4. C[C@H]1CC[C@@H](C(=O)O)N[C@@H]1c1ccc(C#Cc2ccccc2)cc1

[-0.427, 0.629, 0.0454, 0.0274]

Hey, can you go through the list below and give me composite z-score for every item?
1. CC(CCN1CCc2nc(-c3ccccc3)c(-c3ccccc3)cc2C1)=NOC(C)CN1CCCc2nc(C)c(C)cc21 (configuration not stated)
2. CC(C)C(=O)N[C@H]1CCCN1C(=O)C=Cc1ccccc1
3. COC(=O)CC=C[C@@H](C)[C@@H](C=NOC[C@@H](C)[C@H](OCc1ccccc1)C(C)C)NS(=O)(=O)c1ccc(C)cc1
4. COc1ccc(COC(=O)NN=C2C[C@@H](O)[C@@H](O)[C@@H]3[C@@H]4C(=O)N(C[C@@H]5CCCO5)C(=O)[C@@H]4CC[C@@H]23)cc1
5. CO[C@@H]1COC(=O)CC=C[C@H](C)[C@H](OC)COC(=O)[C@@H]2CCCN2C(=O)CC=C[C@H]1C
6. CC(=O)OC[C@H]1O[C@H](C#CCC2CCCCC2)C=C[C@@H]1OC(C)=O
7. CCOC(=O)[C@H](Cc1ccccc1)NC(=O)CCC1CC(OC(=O)NCc2cccc3ccccc23)CC2(CCCC(COC(=O)NCc3ccc4c(c3)OCO4)O2)O1 (some centres not stated)

1. 0.196
2. -0.0477
3. -0.439
4. -0.288
5. -0.48
6. -0.215
7. -0.0102

Fill in: composite z-score of CCOC(=O)[C@H](CC(C)C)NC(=O)CCC1CC(OC(=O)NCCc2ccc(F)cc2)CC2(CCCC(COC(=O)NCc3cccc(C(F)(F)F)c3)O2)O1 (some centres not stated) is ___
-0.211

----------
target: Neurogenic locus notch homolog protein 2 (Homo sapiens); experiment: Notch2 binders on small-molecule microarrays, primary screen, biochemical, small-molecule microarray, 635 nm fluorescence, stem cell growth factors (AID 1073); settings: Notch2 binding, higher = more signal
Short version: composite z-score at least -0.4 is TRUE, less is FALSE.

INSERT INTO results (molecule, class_name) VALUES
  ('O=C1C2=CC[C@H]3C(=O)N(Cc4ccccc4)C(=O)[C@H]3[C@H]2[C@H](O)[C@@H]2O[C@H]12', 'TRUE');

Is it the case that COC(=O)[C@H](C)NC(=O)CCC1CC(OC(=O)NCc2ccc3c(c2)OCO3)CC2(CCCC(COC(=O)NCCCN3CCCC3=O)O2)O1 (some centres not stated) has composite z-score reaching or exceeding -0.4?
TRUE

How about this molecule: `O=C(NN=C1C[C@@H](O)[C@@H](O)[C@@H]2[C@@H]3C(=O)N(Cc4ccc5c(c4)OCO5)C(=O)[C@@H]3CC[C@@H]12)OCc1ccccc1`
TRUE

How about this molecule: CCOC(=O)[C@H](CC(C)C)NC(=O)CCC1CC(OC(=O)NCCc2ccc(F)cc2)CC2(CCCC(COC(=O)NCCOC)O2)O1 (some centres not stated)
TRUE

How about this molecule: `CC(CCC(=O)OC[C@H]1O[C@H](C#Cc2ccccc2)C=C[C@@H]1Oc1ccc(C)cc1)=NO[C@@H](C)c1cc(-c2c(C)cc(C)cc2C)no1`
FALSE

How about this molecule: `COc1ccc(O[C@H]2C=C[C@@H](c3ccccc3)O[C@@H]2CO)cc1`
TRUE

How about this molecule: `CCOC(=O)CCN1C(=O)[C@H]2[C@@H]3C(=CC[C@H]2C1=O)C(=O)[C@H]1O[C@H]1[C@H]3O`
FALSE

----------
target: Concanavalin-A (Canavalia ensiformis) (UniProt P02866); experiment: ConA small-molecule binders, primary screen, artefact control for SMM control protein annotation, biochemical, small-molecule microarray, Alexa647 label, 635 nm (AID 1127); settings: ConA-A647 binding fluorescence, higher = more signal;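 also: z combines 667 nm emission intensity with signal-to-noise across three replicate slides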
Sequence (P02866 whole entry, looked up): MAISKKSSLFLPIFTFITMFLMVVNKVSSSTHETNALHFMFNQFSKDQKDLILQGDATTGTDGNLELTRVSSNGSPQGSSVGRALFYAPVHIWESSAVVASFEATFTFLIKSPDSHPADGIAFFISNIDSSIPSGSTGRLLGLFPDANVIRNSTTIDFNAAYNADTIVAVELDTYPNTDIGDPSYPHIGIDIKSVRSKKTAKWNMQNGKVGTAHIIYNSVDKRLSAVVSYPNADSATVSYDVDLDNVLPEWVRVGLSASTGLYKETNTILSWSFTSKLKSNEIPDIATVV
Definition: the class of an entry is the range in lower bin: < -0.3; middle bin: ≥ -0.3 and < 0.9; upper bin: ≥ 0.9 that contains its composite z-score.

INSERT INTO results (molecule, class_name) VALUES
  ('CO[C@H]1COC(=O)[C@H](CCSC)NC(=O)CC=C[C@@H](C)[C@H](OC)COC(=O)[C@@H](OCc2ccccc2)C=C[C@@H]1C', 'middle bin'),
  ('CO[C@H]1COC(=O)CC=C[C@@H](C)COC(=O)[C@H]2CCCN2C(=O)CC=C[C@H]1C', 'lower bin'),
  ('CC(=O)OC[C@H]1O[C@@H](ON=C(C)C)[C@H](OC(C)=O)[C@@H](OC(C)=O)[C@@H]1OC(C)=O', 'lower bin'),
  ('CCOC(=O)[C@H](CC(C)C)NC(=O)CCC1CC(OC(=O)NCc2ccc3c(c2)OCO3)CC2(CCCC(COC(=O)NCCOc3ccccc3)O2)O1 (some centres not stated)', 'upper bin'),
  ('CCc1cc2c(nc1CC)CCN(CCC(C)=NO[C@@H]1O[C@H](COC(C)=O)[C@@H](OC(C)=O)[C@H](OC(C)=O)[C@H]1OC(C)=O)C2', 'middle bin');

Which composite z-score band matches `CC(C)=NOC[C@@H](O)[C@H]1O[C@@H]2OC(C)(C)O[C@@H]2[C@H]1O` ?
upper bin

How about this molecule: `CC(C)[C@@H](OCc1ccccc1)[C@H](C)C=NO[C@@H](C)c1cn([C@H](CO)Cc2ccccc2)nn1`
lower bin

How about this molecule: CCOC(=O)[C@H](CC(C)C)NC(=O)CCC1CC(OC(=O)NCc2ccc3c(c2)OCO3)CC2(CCCC(COC(=O)NCc3ccccc3)O2)O1 (some centres not stated)
upper bin

----------
Consider the following compounds; for each one, report its z-score.
assay: A549 lung cancer cell viability effects, profiling panel, resazurin fluorescence, 24 h, PK04 Diversity Set (AID 1171); details: higher = more signal, called active from +8 up or from −8 down; also: test concentration not given here
Answers are plain numbers.

Example entries and their recorded answers appear below.
INSERT INTO measurements (compound, experimental_readout, observed_result) VALUES
  ('CCN1C(=O)[C@H]2[C@H]3[C@H](O)[C@H](O)CC(=NOC[C@@H](O)[C@H]4O[C@@H]5OC(C)(C)O[C@@H]5[C@H]4O)[C@@H]3CC[C@H]2C1=O', 'z-score', -0.794),
  ('COC(=O)[C@H](Cc1ccccc1)NC(=O)[C@@H](C)CO', 'z-score', -0.234),
  ('O=C(NN=C1C[C@@H](O)[C@@H](O)[C@@H]2[C@@H]3C(=O)N(c4ccc(F)cc4F)C(=O)[C@@H]3CC[C@H]12)OCc1ccccc1', 'z-score', 1.88);

Pending compound:
Fill in: z-score of COc1ccc(OC[C@@H]2CC3[C@@H](c4ccc(Br)cc4)[C@H](C)CC[C@H]3C(=O)O2)cc1 (some centres undefined) is ___
0.582

----------
experiment: PSAC antagonists in infected red cells, primary screen, cell-based, P. falciparum Indochina, OD700, 1 h (AID 1154); details: P. falciparum Indochina infected RBC osmotic lysis, higher = more signal, called active from +8 up or from −8 down
Definition: the class of an entry is the range in A = under 0.001, B = from 0.001 up to 3, C = 3 and over that contains its z-score.

Which z-score band matches `CO[C@H]1COC(=O)CC=C[C@H](C)[C@H](OC)COC(=O)[C@@H](C)NC(=O)CC=C[C@@H]1C` ?
A

How about this compound: `CC(C)=CCCC(C)=CCON=C1C[C@@H](O)[C@@H](O)[C@@H]2[C@@H]3C(=O)N(C4CCCCC4)C(=O)[C@@H]3CC[C@H]12`
C

How about this compound: `CCOC(=O)CCN1C(=O)[C@H]2[C@H]3[C@H](O)[C@H](O)CC(=NO[C@@H]4O[C@H](CO)[C@@H](O)[C@H](O)[C@H]4O)[C@H]3CC[C@H]2C1=O`
A
